Assignment: determine reported growth for the given molecules.
Tested on: HCT-116 colon
test.details: NCI-60 one-dose screen, 48 h (100 = growth as untreated, 0 = no growth, -100 = all killed)
stated.conditions: 10 µM unless noted
The panel holds about 83,000 compounds, 20% with a hit somewhere; the sample as a whole holds those more often.
Numbers only, in %.

Here are 4 molecules together with their reported answers.
COc1cc(NS(=O)(=O)C(C)C)cc(-c2cc(-c3ccc(N4CCNCC4)cc3)cnc2N)c1 :: 14.2
CCN1C(=O)/C(=c2\sc3n(c2=O)C2C(NN=3)N(CC)C(=O)N2CC)c2ccccc21 (stereo not given) :: 9.36
COc1cc2ncnc(Nc3ccc(F)c(Cl)c3)c2cc1OCC(=O)N1CCCCC1 :: 79.6
C/C=C(\C)C(=O)N[C@H]1CC[C@]2(C)C3CC[C@@]4(C)C(CC[C@@H]4C(C)N(C)C)C3CCC2[C@H]1OC(C)=O (stereo not given in full) :: -83.3

We next turn to a different molecule, shown below.
Item under review: `O=C(Cc1ccc(F)cc1)c1ccccc1` . Reported growth?
103

----------
Test system: OVCAR-4 ovarian
test.details: NCI-60 one-dose screen, 48 h (100 = growth as untreated, 0 = no growth, -100 = all killed)
stated.conditions: 10 µM
Compounds without any hit were thinned out: in the full panel of roughly 83,000, 20% have a hit. Active and inactive are the calls of the source. Rule for the calls: active = growth percent below 10; inactive = the rest.
measured.metric: growth

Here are 5 compounds together with their reported answers.
COc1ccc(C(=O)/C=C/c2ccc(OCc3ccc(Cl)cc3)cc2)cc1OC :: 86% (inactive)
CC(=O)/C=C/c1ccc(N(C)Cc2ccc(C(C)(C)C)cc2)cc1 :: 85.2% (inactive)
CC(=O)/C=C/c1ccc(N(CCO)Cc2ccc(C(C)(C)C)cc2)cc1 :: 65.7% (inactive)
CCN(Cc1ccccc1)c1ccc(/C=C2\COc3ccccc3C2=O)cc1 :: 102% (inactive)
COc1ccc(C(=O)/C=C/c2ccc(OCc3cccc(C(F)(F)F)c3)c(OC)c2)cc1OC :: 74.9% (inactive)

We next turn to a different compound, shown below.
For OVCAR-4 ovarian, provide growth of `O=C(/C=C/c1cccc(Oc2ccc(Cl)cc2)c1)c1ccccc1` please.
90.3% (inactive)

----------
System: UACC-62 melanoma
test.details: NCI-60 one-dose screen, 48 h (100 = growth as untreated, 0 = no growth, -100 = all killed)
stated.conditions: 10 µM unless noted
About 83,000 compounds went through this panel and 20% of them were active in at least one assay; those are over-represented in the sample as a whole.
measured.metric: growth (%)
One number for each entry, in %.

Cc1ccc(NC(=O)N/C(N)=N/c2nc(=O)c3ccccc3s2)cc1 :: 83
COc1cc(/C=C2/C=C(c3ccc(C(C)(C)C)cc3)N(CCc3ccc(S(N)(=O)=O)cc3)C2=O)cc(OC)c1OC :: 59
O=C([C@H]1C[C@H]1c1ccc(S(F)(F)(F)(F)F)cc1)N1CCN(c2cc(Cl)ccc2C(F)(F)F)CC1 :: 67.4
C/C=C(/C)C(=O)O[C@@H]1CC(C)(C)CC2C34OC(=O)[C@@]21CC[C@@]3(C)[C@]1(C)CCC2C(C)(C)C(=O)CC[C@]2(C)C1C[C@@H]4Cl (some centres not stated) :: 85.3
CC[C@]1(O)CC2CN(CCc3c([nH]c4ccccc34)C(C(=O)OC)(c3cc4c(cc3OC)N(C=O)[C@H]3[C@@](O)(C(=O)OC)[C@H](OC(C)=O)[C@]5(CC)[C@@H]6C[C@@H]6CN6CC[C@]43[C@@H]65)C2)C1 (some centres not stated) :: 37.2

// batch mode: one growth value per listed entry
1. BrC1=C(Br)C(Br)(Br)C(Br)=C1Br
2. COc1ccc(Oc2nc(Nc3ccc(N4CCOCC4)cc3)ncc2NC(=O)c2cccc(C(F)(F)F)c2)cc1

1: 71; 2: 78.4

----------
Assignment: determine reported growth for the given compounds.
System: SNB-19 CNS
test.details: NCI-60 one-dose screen, 48 h (100 = growth as untreated, 0 = no growth, -100 = all killed)
stated.conditions: 10 µM unless noted
The panel holds about 83,000 compounds, 20% with a hit somewhere; the sample as a whole holds those more often.
Numbers only, in %.

COc1ccc(/C=C/C(=O)c2cc3c(N)c(C(=O)Nc4ccccc4)sc3nc2C)cc1 :: 1.78

// batch mode: one growth value per listed entry
1. Cc1ccc(S(=O)(=O)OC[C@@]2(C)CC[C@]3(C)CC[C@]4(C)C(=CC[C@@H]5[C@@]6(C)CCCNC(C)(C)[C@@H]6CC[C@]54C)[C@@H]3C2)cc1
2. N#Cc1ccccc1OCC(=O)Nc1nc2c(s1)COc1ccccc1-2
3. O=C1/C(=C/c2ccc(-c3cccc(C(F)(F)F)c3)o2)SC(=S)N1CCc1ccc(O)cc1
4. C#CCOCC1CN(C)C(=O)O1 (stereo not given)

1: -16.7; 2: 102; 3: 104; 4: 107

----------
Tested on: NCI/ADR-RES ovarian
test.details: NCI-60 one-dose screen, 48 h (100 = growth as untreated, 0 = no growth, -100 = all killed)
stated.conditions: 10 µM unless noted
This is part of a sample that, as a whole, favours compounds with a hit. Of some 83,000 tested, about 20% had one in any assay.
If the reported growth equals or exceeds 60%, assign Satisfied. If not, assign Not satisfied.

CC1(C)C(N)=Nc2cc(OCCCN3Cc4ccc(OCCc5cn(CC(=O)N6CCC(CCN7CCCC7)CC6)nn5)cc4C3)c(OCC3CC3)cc21 :: Satisfied
CCCCCCNC(=O)Oc1ccc(/C(=C(/CC)Cc2ccccc2)c2ccc(OCCCN(C)C)cc2)cc1 :: Satisfied
Cc1n(Cc2ccc3ccccc3c2)c(Cl)c(Cl)[n+]1Cc1ccc2ccccc2c1 :: Satisfied
COc1ccc(C2Nc3nc(SC)nc(N)c3N=C3c4ccccc4CCC32)cc1 (stereo not drawn) :: Not satisfied
[2H]C([2H])([2H])Oc1cc(F)ccc1/C=C/C(=O)/C=C(/C=C/c1ccc(F)cc1OC([2H])([2H])[2H])OB(F)F :: Not satisfied
C=C(C)[C@@H]1CC[C@]2(C)[C@H](CC(=O)N[C@H]3[C@@H]4C[C@](C)(C(=O)OC)CC[C@]4(C)CC[C@]32C)[C@@]1(C)CCC#N :: Satisfied
O=C(N=Nc1c(O)[nH]c2ccccc12)Nc1ccccc1Cl :: Satisfied

# next compound below
Confirm if growth reported for the compound `CC(=O)c1c(C)nc2ccccc2c1/C=C/c1cccc(C)c1` is 60% or above.
Not satisfied

----------
Tested on: HT29 colon
test.details: NCI-60 one-dose screen, 48 h (100 = growth as untreated, 0 = no growth, -100 = all killed)
stated.conditions: 10 µM unless noted
This is part of a sample that, as a whole, favours compounds with a hit. Of some 83,000 tested, about 20% had one in any assay.
Assignment: determine reported growth for the given compounds.
Answers are plain numbers, in %.

Here are 3 compounds together with their reported answers.
COc1cc2c(cc1OCCCOC1=C=C=C(c3ccc4c(c3)c3cc(-c5ccc(OCCCOc6cc7c(cc6OC)C(=O)N6CCC[C@H]6C=N7)cc5)ccc3n4S(=O)(=O)c3ccc(C)cc3)C=C1)N=C[C@@H]1CCCN1C2=O :: 37.7
CCOC(=O)CC1CSC(c2cccc(Cl)c2)=N1 (stereo not given) :: 102
O=C1/C(=C/c2ccc(-c3ccccc3C(F)(F)F)o2)SC(=S)N1CCc1ccc(O)cc1 :: 14.8

// batch mode: one growth value per listed entry
1. COC(=O)c1nc(-c2ccccc2)oc1S(=O)(=O)N(C)CCO
2. C[C@]12CCc3c(ccc4cc(O)ccc34)[C@@H]1C[C@H](O)[C@@H]2O
3. CC(C)(C)CC(N)=O
4. COc1ccc(-c2nn3c(-c4cc(F)c(Cl)cc4Cl)nnc3s2)cc1
5. CCOc1nc(-c2ccccc2)cc2c(O)c(C(=O)N/N=C/c3ccc(N(C)C)cc3)[nH]c(=O)c12
6. COc1cc(/C=C2\CCC/C(=C\c3cc(CN4CCCC4)c(O)c(OC)c3)C2=O)cc(CN2CCCC2)c1O
7. CN1C(=O)/C(=C/c2ccc(C(=O)Nc3ncc(Cc4ccccc4Cl)s3)cc2)SC1=S

35.7
102
102
5.17
145
-46.2
69.5

// batch mode: one growth value per listed entry
1. O=C(c1ccc(Nc2nccc(NCCCNc3ccnc4cc(Cl)ccc34)n2)cc1)N1CCCCC1
2. CCOC(=O)CCCn1c(-c2ccccc2)cc(-c2ccccc2)c(C#N)c1=O
3. C#Cc1cc(C(=O)Nc2ccc(CN3CCN(C)CC3)c(C(F)(F)F)c2)ccc1C
4. COc1ccc(/C(C)=C(\c2ccc(OCCN3CCOCC3)cc2)c2ccc(OC(=O)C3CCCCC3)cc2)cc1
5. Cc1n(Cc2ccc3ccccc3c2)c(Cl)c(Cl)[n+]1Cc1ccc2ccccc2c1

1: 19.7; 2: 88.1; 3: 5.65; 4: 102; 5: 19.2

// batch mode: one growth value per listed entry
1. COc1cc(C=O)ccc1Oc1ccc([N+](=O)[O-])cc1[N+](=O)[O-]
2. C=C1C(=O)O[C@H]2[C@H]1CC/C(COC(=O)NCc1ccc(Cn3c(=O)sn(CCCI)c3=O)cc1)=C\CC[C@@]1(C)O[C@@H]21
3. Cc1ccc2nc3ccccc3c(NCc3ccc(Cl)cc3)c2c1
4. Cc1ccc(S(=O)(=O)OC[C@@]2(C)CC[C@]3(C)CC[C@]4(C)C(=C3C2)C=C[C@@H]2[C@@]3(C)CCCNC(C)(C)[C@@H]3CC[C@]24C)cc1
5. COc1c(F)cc(-n2c(C(=O)N3CC(F)C3)cc3cccnc32)cc1F
6. O=C(Nc1ncc(Cc2cccc(C(F)(F)F)c2)s1)c1ccc2c(c1)OCCO2

[108, -46.1, 5.35, -69.2, 104, 4.83]

// batch mode: one growth value per listed entry
1. CC1(Cc2ccccc2)CC2=C(C(=O)O1)C(c1ccccc1)NC(=O)N2 (stereo not given)
2. CN1CCCc2cc(/C=C3\SC(=S)N(C(Cc4ccc(O)cc4)C(=O)O)C3=O)ccc21 (stereo not given)
3. CN1CCN(Cc2ccc(NC(=O)c3nc4ccc5[nH]ncc5c4c4c3CCCC4)cc2C(F)(F)F)CC1
4. CCN(CC)CCOc1ccccc1C

1. 96.8
2. 110
3. -83.2
4. 101
